Target: T1, Ax1 protein, extracellular domain (human, UniProt P30530 26-451)
T1 construct: extracellular domain; also called Axl; Ark
T1 sequence (looked up): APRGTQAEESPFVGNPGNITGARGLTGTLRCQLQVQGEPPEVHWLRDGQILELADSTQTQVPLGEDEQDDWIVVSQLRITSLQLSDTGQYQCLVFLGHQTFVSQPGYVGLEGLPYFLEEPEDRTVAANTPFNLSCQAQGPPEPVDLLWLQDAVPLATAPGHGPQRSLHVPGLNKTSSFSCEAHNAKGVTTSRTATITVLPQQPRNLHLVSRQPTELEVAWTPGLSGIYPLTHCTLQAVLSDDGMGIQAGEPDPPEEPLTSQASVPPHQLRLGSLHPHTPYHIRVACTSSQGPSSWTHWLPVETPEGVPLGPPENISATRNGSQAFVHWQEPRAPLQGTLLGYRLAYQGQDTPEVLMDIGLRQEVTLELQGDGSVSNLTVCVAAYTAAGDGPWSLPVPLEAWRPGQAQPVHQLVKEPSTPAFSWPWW
Assay: ELISA, mutant diluted 1:3
Property Measured: Affinity ELISA CPE mutant ratio (1:3, pH 6.0/7.4)
Answer as a number with no unit attached.

HC-B102I (antibody, V domains shown, CPE single point mutant; printed B102, read as E102 (other rows print HC-E102x)) VH: EVQLVQSGAEVKKPGATVKISCKVSGYSFTGHTMNWIRQPPGKGLEWIGLIKPSNGGTSYNQKFKGRVTISADKSISTAYLQWSSLKASDTAMYYCAHGHYISYFAMDYWGQGTLVTVSS VL: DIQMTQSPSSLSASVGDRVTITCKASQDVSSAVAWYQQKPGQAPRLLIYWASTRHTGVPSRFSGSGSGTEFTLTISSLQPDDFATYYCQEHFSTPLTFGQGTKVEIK | 2.02

As a next step, examine the binder that follows.
Problem: Reported Affinity ELISA CPE mutant ratio (1:3, pH 6.0/7.4) for LC-A032L (antibody, V domains shown, CPE single point mutant) VH: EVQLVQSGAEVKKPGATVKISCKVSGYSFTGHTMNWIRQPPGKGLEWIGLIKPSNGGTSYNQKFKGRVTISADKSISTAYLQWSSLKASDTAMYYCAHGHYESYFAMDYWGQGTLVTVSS VL: DIQMTQSPSSLSASVGDRVTITCKASQDVSSLVAWYQQKPGQAPRLLIYWASTRHTGVPSRFSGSGSGTEFTLTISSLQPDDFATYYCQEHFSTPLTFGQGTKVEIK : what is it?
Result: 1.9
